Origin of values: paper PMC9090415

- tested.system: UniProt:Q8ILY1
- Sequence (Q8ILY1 entry or part of it): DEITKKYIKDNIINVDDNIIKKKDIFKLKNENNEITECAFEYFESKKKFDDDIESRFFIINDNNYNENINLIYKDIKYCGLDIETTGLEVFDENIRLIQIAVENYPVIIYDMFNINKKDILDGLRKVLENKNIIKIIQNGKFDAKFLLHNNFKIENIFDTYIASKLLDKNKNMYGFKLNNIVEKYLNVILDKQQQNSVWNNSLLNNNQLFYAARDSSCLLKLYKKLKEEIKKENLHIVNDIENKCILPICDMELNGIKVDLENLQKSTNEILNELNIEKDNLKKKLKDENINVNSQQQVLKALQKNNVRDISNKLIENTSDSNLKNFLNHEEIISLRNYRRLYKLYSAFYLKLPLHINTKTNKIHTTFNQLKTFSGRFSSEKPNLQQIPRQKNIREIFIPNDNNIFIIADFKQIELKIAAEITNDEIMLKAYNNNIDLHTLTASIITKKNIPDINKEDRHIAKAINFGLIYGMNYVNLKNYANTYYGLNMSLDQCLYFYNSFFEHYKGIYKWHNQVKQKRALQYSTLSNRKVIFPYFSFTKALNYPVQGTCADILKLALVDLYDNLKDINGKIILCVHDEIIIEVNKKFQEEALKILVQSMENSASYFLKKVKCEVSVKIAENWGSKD
- measurement.protocol: Fluorescence-based high-throughput DNA polymerase assay (molecular beacon), primary screen and dose-response;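 also: test concentration in µM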
- Format: biochemical
- applied.conditions: DRC-1; 180'; conc 10
Please enter TRUE where % inhibition apPOL 180' is greater than or equal to 20%, and FALSE where it is lower.

INSERT INTO assay_data (compound, classification) VALUES
  ('Cc1ccc(NC(=O)Cn2ccc3c(=O)[nH]ccc32)c(C)c1', 'FALSE'),
  ('N#CC(C#N)=C1SCN(c2cccc(Cl)c2)CS1', 'FALSE'),
  ('Cc1ccccc1NC(=O)Cn1ccc2c(=O)[nH]ccc21 [Molecule 50, O=C(Cn1ccc2c1cc[nH]c2=O)Nc1ccc(cc1)C]', 'FALSE'),
  ('O=C1NN(c2ccc(Cl)c(Cl)c2)C(=O)/C1=C/c1ccc(-c2ccc3c(c2)C(=O)OC3)o1', 'TRUE'),
  ('CC(C)CCNC(=O)c1cnn2c(O)cc(CSc3ccc(Cl)cc3)nc12', 'TRUE'),
  ('Cc1cccc(C2=N/C(=C\c3ccc([N+](=O)[O-])o3)C(=O)O2)c1', 'TRUE'),
  ('C=CCOc1c(Br)cc(Br)cc1/C=C1\SC(=N)NC1=O', 'FALSE'),
  ('O=C(O)c1ccc(COc2cc([N+](=O)[O-])cc3cccnc23)cc1', 'FALSE');
